Data provenance is ChEMBL document CHEMBL1156989.

assay comment: Oral bioavailability in rat at 40 mg/kg
Assay type: ADME, organism-based
experimental parameters: in vivo
measured metric: bioavailability (%)
Give your result in % as a bare value.

Determine from records and report bioavailability for "c1ccc(CNCc2ccc(CN(Cc3nc4ccccc4[nH]3)[C@H]3CCCc4cccnc43)cc2)nc1"
48

###

target or system: C-X-C chemokine receptor type 4 (Homo sapiens)
Sequence (P61073 whole entry): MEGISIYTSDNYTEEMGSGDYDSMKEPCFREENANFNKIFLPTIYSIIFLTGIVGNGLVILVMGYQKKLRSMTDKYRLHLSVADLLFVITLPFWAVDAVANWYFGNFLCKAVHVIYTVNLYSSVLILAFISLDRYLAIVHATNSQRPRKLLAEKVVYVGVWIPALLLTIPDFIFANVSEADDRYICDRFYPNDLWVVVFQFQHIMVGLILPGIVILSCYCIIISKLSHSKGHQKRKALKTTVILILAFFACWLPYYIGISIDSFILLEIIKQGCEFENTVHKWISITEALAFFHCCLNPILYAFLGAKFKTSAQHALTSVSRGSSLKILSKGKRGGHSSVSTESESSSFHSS
assay comment: Antagonist activity at CXCR4 in human CEM-CCRF cells assessed as inhibition of SDF-1-induced calcium flux
Assay type: functional, cell-based
Each record gets a class by IC50: low range (below 90 nM), mid range (90 nM to below 500 nM), high range (500 nM or more)

Any idea which band NCc1cccc(CN(Cc2nc3ccccc3[nH]2)C2CCCc3cccnc32)c1 (centres undefined) is in?
high range

Any idea which band NC/C=C\CN(Cc1nc2ccccc2[nH]1)C1CCCc2cccnc21 (centres undefined) is in?
low range

Any idea which band NC/C=C/CN(Cc1nc2ccccc2[nH]1)C1CCCc2cccnc21 (centres undefined) is in?
mid range

Any idea which band CNCCCCN(Cc1nc2ccccc2[nH]1)C1CCCc2cccnc21 (centres undefined) is in?
mid range

Any idea which band NCc1ccccc1CN(Cc1nc2ccccc2[nH]1)C1CCCc2cccnc21 (centres undefined) is in?
low range

Any idea which band NCCCN(Cc1nc2ccccc2[nH]1)C1CCCc2cccnc21 (centres undefined) is in?
low range

Any idea which band N#CCCCCN(Cc1nc2ccccc2[nH]1)C1CCCc2cccnc21 (centres undefined) is in?
mid range

Any idea which band NCC#CCN(Cc1nc2ccccc2[nH]1)C1CCCc2cccnc21 (centres undefined) is in?
high range

Any idea which band NCCCCCCN(Cc1nc2ccccc2[nH]1)C1CCCc2cccnc21 (centres undefined) is in?
low range

Any idea which band CN(C)CCCCN(Cc1nc2ccccc2[nH]1)C1CCCc2cccnc21 (centres undefined) is in?
low range

Any idea which band NCCCC(=O)N(Cc1nc2ccccc2[nH]1)C1CCCc2cccnc21 (centres undefined) is in?
high range

Any idea which band NCc1ccc(CN(Cc2nc3ccccc3[nH]2)C2CCCc3cccnc32)cc1 (centres undefined) is in?
mid range

Any idea which band NCCN(Cc1nc2ccccc2[nH]1)C1CCCc2cccnc21 (centres undefined) is in?
high range
